Measured % Cell Death, listed per entry.
assay.info: MMV: MTT Cytotoxicity Assay Day 7 pi of Assay #6 (compound washed out Day 1 pi), U87-CD4-CCR5 cells, % cell death @ 5mM compound
Format: toxicity, cell-based
condition.info: human, u87-cd4-ccr5, 5000 µM
Number, no unit, nothing else.

Which % Cell Death is reported for this molecule? Cc1ccnc(NC(c2cccc(OCc3ccccc3)c2)c2ccc3cccnc3c2O)c1 (stereo not drawn)
49

Given the entry `CN(C)c1ccc(N=Cc2ccc(N3CCOCC3)cc2)cc1` , report its measured % Cell Death.
92

For CC(C)(C)c1ccc(C2CC3=Nc4ccccc4N(C(=O)c4ccccc4Cl)C(c4ccc(F)cc4)C3=C(O)C2)cc1 (stereo not drawn) , what is its reported % Cell Death?
8

Query: % Cell Death; subject: `c1ccc(/C2=N/c3ccccc3/N=C(/c3ccccc3)c3ccccc32)cc1`
0

Recorded % Cell Death for `Cc1[nH]c(-c2ccc(F)cc2)cc1C(=O)NC1CCN(Cc2ccccc2)CC1` , please?
52

Consider the molecule shown here: Cc1c(C)n(CC(O)CNC2CCCCC2C)c2ccccc12 (stereo not drawn) What is its recorded % Cell Death?
-11

Item `O=C(O)C(=O)O.Oc1ccc(Br)cc1CN1CCN(Cc2cccc(F)c2)CC1` has what recorded % Cell Death?
94

* * *

assay.info: MMV: MTT Cytotoxicity Assay Day 7 pi of Assay #10 (NO washout), U87-CD4-CCR5 cells, % cell death @ 5mM compound
Format: toxicity, cell-based
condition.info: human, u87-cd4-ccr5, 5000 µM
Class true: % Cell Death at least 20. Class false: % Cell Death below 20.

Answered cases to consult:
Cc1ccc2nc(C)cc(Nc3cccc(C(F)(F)F)c3)c2c1.Cl = true
O=C(NC1CCN(Cc2ccccc2)CC1)c1cc(-c2cccnc2)nc2ccc(Cl)cc12 = true
OC(CNC1CCCCC1)Cn1c2ccccc2c2ccccc21 (stereo not given) = true
Cc1ccc2cc3c(N)c4c(C)ccc(C)c4nc3nc2c1 = false
O=C(Nc1ccc(Cl)cc1C(=O)Nc1ccncc1)c1ccc(Cl)cc1Cl = false
Cc1cc(Nc2ccc(OCc3ccccc3)cc2)nc2cc(O)ccc12 = false
N=c1c2ccccc2nnn1-c1cccc(C(F)(F)F)c1 = true
COc1cc(SC)ccc1C(=O)N1CCCC(C)C1 (stereo not given) = false

Below: the item to evaluate.
Item COc1ccccc1N1CCN(C(CNS(=O)(=O)c2ccc(Cl)cc2)c2cccnc2)CC1 (stereo not given) with % Cell Death of 20 or above?
true

* * *

assay.info: MMV: MTT Cytotoxicity Assay Day 7 pi of Assay #7 (compound washed out Day 1 pi), U87-CD4-CXCR4 cells, % cell death @ 5mM compound
Format: toxicity, cell-based
condition.info: human, u87-cd4-cxcr4, 5000 µM
Label scheme for % Cell Death: lower than -10 is n, -10 and above is y.

A selection of reference data follows.
COc1nc(Nc2ccc(C(C)C)cc2)nc(OC)n1 = y
Nc1nc(Nc2cccc(F)c2)nc2ccccc12 = n
COc1ccc(CNC2CCN(c3ccc(NC(=O)c4cccc(Cl)c4)cc3)CC2)cc1OC = n
Cc1ccc(CSCc2ccc(C(=O)NC3CC3)o2)cc1 = n
COc1ccc2c(c1)OC(O)(C(F)(F)C(F)(F)F)CC2=O (centres undefined) = y
CCOc1ccccc1CNC(=O)C1c2ccccc2C(=O)N(CC(C)C)C1c1cccs1 (centres undefined) = n
CCN(CC)c1cc(C)c2cc(NC(=O)c3cccc(OC)c3)ccc2n1 = n

Quick check, % Cell Death >= -10? `O=C(Nc1ccc(Cl)cc1C(=O)Nc1ccncc1)c1ccc(Cl)cc1Cl`
y
